SYSTEM_NAME: bradykinin 1 receptor (B1R) of the rat (Rattus norvegicus, UniProt P97583)
Construct: expressed in transfected cells; host or cells: CHO K1 cells
Sequence (P97583 whole entry): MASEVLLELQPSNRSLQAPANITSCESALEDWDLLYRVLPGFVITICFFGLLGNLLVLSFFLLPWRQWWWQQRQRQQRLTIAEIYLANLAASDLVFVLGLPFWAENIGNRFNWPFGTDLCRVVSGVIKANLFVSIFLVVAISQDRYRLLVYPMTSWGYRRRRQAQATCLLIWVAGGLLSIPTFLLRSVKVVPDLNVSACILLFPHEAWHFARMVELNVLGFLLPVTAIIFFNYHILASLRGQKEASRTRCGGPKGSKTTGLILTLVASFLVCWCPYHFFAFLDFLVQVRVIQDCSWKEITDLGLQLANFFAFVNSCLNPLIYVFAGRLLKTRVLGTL
TEST_SUMMARY: Functional investigation on the rat bradykinin 1 receptor (B1R), Ca2+ FLIPR assay in CHO K1 rB1R cells
Format: cell-based
ASSAY_SETUP: CHO-K1, B1R antagonism rat; test substance 10 μM; Ca2+ FLIPR, CHO K1 rB1R cells; read-out: B1R Ant. r [10 μM] % Inhibition
Note to self: values exactly at 30% are 1 (yes). So inhibition at 10 µM at or above 30% is 1 (yes), below is 0 (no).

Answered cases to consult:
QUERY: Decide: inhibition at 10 µM of CN(CCOCC(=O)NCC1CCC(C(CCc2ccccc2)N2CCOCC2)CC1)S(=O)(=O)c1c(Cl)cc(Cl)cc1Cl (stereo not shown) >= 30%?
RESULT: 0 (no)

QUERY: How about CN(C)C(c1ccccc1)C1CCC(CNC(=O)COC2CCCCC2N(C)S(=O)(=O)c2ccc(Cl)c(Cl)c2)CC1 (stereo not shown) ?
RESULT: 0 (no)

QUERY: How about CN(CCOCC(=O)NCC1CCC(C(CCc2ccccc2)N2CCCC2)CC1)S(=O)(=O)c1ccc(Cl)cc1Cl (stereo not shown) ?
RESULT: 1 (yes)

QUERY: How about COc1cc(C)c(S(=O)(=O)N2CCC(CCOCC(=O)NCC3CCC(C(c4ccccc4)N(C)C)CC3)CC2)c(C)c1C (stereo not shown) ?
RESULT: 0 (no)

QUERY: How about CN(C)C(c1cccs1)C1CCC(CNC(=O)COC2CCN(S(=O)(=O)c3ccc(Cl)cc3)C2)CC1 (stereo not shown) ?
RESULT: 0 (no)

We next turn to a different compound, shown below.
QUERY: Decide: inhibition at 10 µM of COc1ccc(S(=O)(=O)N(C)CCOCC(=O)NCC2CCC(C(c3ccccc3)N(C)C)CC2)cc1OC (stereo not shown) >= 30%?
RESULT: 0 (no)

----------
SYSTEM_NAME: bradykinin 1 receptor (B1R) of the rat (Rattus norvegicus, UniProt P97583)
Construct: expressed in transfected cells; host or cells: CHO K1 cells
TEST_SUMMARY: Functional investigation on the rat bradykinin 1 receptor (B1R), Ca2+ FLIPR assay in CHO K1 rB1R cells
Type: cell-based
ASSAY_SETUP: CHO-K1, B1R antagonism rat; test substance 10 μM; Ca2+ FLIPR, CHO K1 rB1R cells; read-out: B1R Ant. r [10 μM] % Inhibition
VALUE_KIND: inhibition at 10 µM (%)
# unit: % | format: bare number

QUERY: Need inhibition at 10 µM, item CN(C)C(c1cccc(F)c1)C1CCC(NC(=O)COC2CCN(S(=O)(=O)c3ccc(F)cc3)C2)CC1 (centres unmarked)
RESULT: 18

QUERY: How about COc1ccc(-c2noc(C(=O)NCCC(=O)NC3CCC(C(c4ccccc4)N(C)C)CC3)n2)cc1OC (centres unmarked) ?
RESULT: 2

QUERY: How about CN(C)C(c1ccccc1)C1CCC(CNC(=O)CCOCN(C)S(=O)(=O)c2c(Cl)cc(Cl)cc2Cl)CC1 (centres unmarked) ?
RESULT: 81

Others:
QUERY: Need inhibition at 10 µM, item COc1ccc(S(=O)(=O)N2CCC(OCC(=O)NCC3CCC(C(c4ccccc4)N(C)C)CC3)C2)cc1OC (centres unmarked)
RESULT: 26

----------
SYSTEM_NAME: human μ opiate receptor (Homo sapiens, UniProt P35372)
Construct: purchased PerkinElmer Life Sciences, Zaventem, Belgium RB-HOM; host or cells: CHO-K1 cells (membrane preparation)
Sequence (P35372 whole entry): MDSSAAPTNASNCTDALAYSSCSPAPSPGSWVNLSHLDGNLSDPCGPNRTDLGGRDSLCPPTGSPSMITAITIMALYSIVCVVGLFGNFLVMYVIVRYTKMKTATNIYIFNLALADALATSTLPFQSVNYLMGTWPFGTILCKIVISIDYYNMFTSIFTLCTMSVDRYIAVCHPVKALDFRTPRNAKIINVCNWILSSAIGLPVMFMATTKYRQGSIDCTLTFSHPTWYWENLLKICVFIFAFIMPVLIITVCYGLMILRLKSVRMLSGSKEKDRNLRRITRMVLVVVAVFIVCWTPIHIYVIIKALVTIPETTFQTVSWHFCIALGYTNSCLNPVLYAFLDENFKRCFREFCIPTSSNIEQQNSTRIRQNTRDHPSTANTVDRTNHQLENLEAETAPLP
TEST_SUMMARY: Affinity for the human μ opiate receptor ([3H]-naloxone displacement, CHO-K1 receptor membrane preparation, SPA)
Format: binding
ASSAY_SETUP: test concentration of 1 μM; read-out: μ (binding on the μ opioid receptor, % inhibition)
Attribute: inhibition at 1 µM
# unit: % | format: bare number

// known answers, use as guide
QUERY: Need inhibition at 1 µM, item CN(C)C(c1cccc(F)c1)C1CCC(CCNC(=O)COCC2CCCCN2S(=O)(=O)c2ccc(Cl)c(Cl)c2)CC1 (centres unmarked)
RESULT: 90

QUERY: How about CN(C)C(c1ccccc1)C1CCC(CNC(=O)COC2CCCCC2N(C)S(=O)(=O)c2ccc(Cl)c(Cl)c2)CC1 (centres unmarked) ?
RESULT: 95

QUERY: How about COc1ccc(S(=O)(=O)N2CCCCC2COCC(=O)NCC2CCC(C(c3cccc(F)c3)N(C)C)CC2)c(OC)c1 (centres unmarked) ?
RESULT: 90

QUERY: How about COc1cc(C)c(S(=O)(=O)N2CCC(OCC(=O)NCC3CCC(C(c4ccccc4)N(C)C)CC3)CC2)c(C)c1C (centres unmarked) ?
RESULT: 89

QUERY: How about COc1cc(C)c(S(=O)(=O)N2CCCC(OCC(=O)NCCC3CCC(C(c4cccs4)N(C)C)CC3)C2)c(C)c1C (centres unmarked) ?
RESULT: 94

Others:
QUERY: Need inhibition at 1 µM, item COc1ccc(S(=O)(=O)N2CCCCC2CCOCC(=O)NC2CCC(C(c3cccs3)N(C)C)CC2)cc1 (centres unmarked)
RESULT: 99

QUERY: How about COc1cc(C)c(S(=O)(=O)N2CCCC(OCC(=O)NCC3CCC(C(c4ccccc4)N(C)C)CC3)C2)c(C)c1C (centres unmarked) ?
RESULT: 97

QUERY: How about COc1cc(C)c(S(=O)(=O)N2CCC(OCC(=O)NC3CCC(C(c4cccc(F)c4)N(C)C)CC3)C2)c(C)c1C (centres unmarked) ?
RESULT: 84

QUERY: How about COc1ccc(S(=O)(=O)N2CCCCC2COCC(=O)NCCC2CCC(C(c3cccs3)N(C)C)CC2)cc1OC (centres unmarked) ?
RESULT: 92

QUERY: How about CN(C)C(c1cccs1)C1CCC(CCNC(=O)COC2CCN(S(=O)(=O)c3ccc(Cl)cc3Cl)C2)CC1 (centres unmarked) ?
RESULT: 97

QUERY: How about COc1cc(C)c(S(=O)(=O)N2CCC(CCOCC(=O)NC3CCC(C(c4cccc(F)c4)N(C)C)CC3)CC2)c(C)c1C (centres unmarked) ?
RESULT: 90

QUERY: How about COc1ccc(S(=O)(=O)N2CCCCC2CCOCC(=O)NCCC2CCC(C(c3cccs3)N(C)C)CC2)cc1 (centres unmarked) ?
RESULT: 96

QUERY: How about COc1ccc(S(=O)(=O)N2CCCCC2CCOCC(=O)NC2CCC(C(c3ccccc3)N(C)C)CC2)cc1 (centres unmarked) ?
RESULT: 99

QUERY: How about COc1cc(C)c(S(=O)(=O)N2CCN(CCOCC(=O)NC3CCC(C(c4cccc(F)c4)N(C)C)CC3)CC2)c(C)c1C (centres unmarked) ?
RESULT: 93

----------
SYSTEM_NAME: human μ opiate receptor (Homo sapiens)
Construct: purchased PerkinElmer Life Sciences, Zaventem, Belgium RB-HOM; host or cells: CHO-K1 cells (membrane preparation)
TEST_SUMMARY: Affinity for the human μ opiate receptor ([3H]-naloxone displacement, CHO-K1 receptor membrane preparation, SPA)
Assay type: binding
ASSAY_SETUP: 1.5 h, Table 3, to be read in the same way as Table 1; test concentration 1 μM; read-out: μ
Procedure: Binding data of the compounds on the μ opioid receptor and data on the inhibition of reuptake of serotonin (5-HT) are given in Table 1. The data for the μ receptor were measured at a test concentration of 1 μM, and those for the serotonin reuptake at 10 μM. The values are stated in % inhibition. […] The receptor affinity for the human p opiate receptor is determined in a homogeneous set-up in microtitre plates. […]
VALUE_KIND: inhibition at 1 µM
Mention the unit after the number when you answer.

// known answers, use as guide
QUERY: Form entry - test system: human μ opiate receptor (Homo sapiens); read-out: inhibition at 1 µM; compound: COc1cc(C)c(S(=O)(=O)N2CCCC(OCC(=O)NC3CCC(C(CCc4ccccc4)N4CCCCC4)CC3)C2)c(C)c1 (centres unmarked)
RESULT: 37%

QUERY: How about O=C(COC1CCN(S(=O)(=O)c2c(Cl)cc(Cl)cc2Cl)C1)NCC1CCC(C(c2ccccc2)N2CCOCC2)CC1 (centres unmarked) ?
RESULT: 8%

QUERY: How about CN(CCOCC(=O)NCC1CCC(C(c2ccccc2)N2CCCC2)CC1)S(=O)(=O)c1c(Cl)cccc1Cl (centres unmarked) ?
RESULT: 76%

QUERY: How about O=C(COCC1CCCN(S(=O)(=O)c2c(Cl)cc(Cl)cc2Cl)C1)NCC1CCC(C(CCc2ccccc2)N2CCOCC2)CC1 (centres unmarked) ?
RESULT: 25%

QUERY: How about CN(CCOCC(=O)NCC1CCC(C(CCc2ccccc2)N2CCOCC2)CC1)S(=O)(=O)c1c(Cl)cc(Cl)cc1Cl (centres unmarked) ?
RESULT: 10%

QUERY: How about CN1CCN(C(c2ccccc2)C2CCC(NC(=O)COC3CCCN(S(=O)(=O)c4c(Cl)cc(Cl)cc4Cl)C3)CC2)CC1 (centres unmarked) ?
RESULT: 65%

QUERY: How about CN(CCOCC(=O)NCC1CCC(C(c2ccccc2)N2CCOCC2)CC1)S(=O)(=O)c1ccc(Cl)cc1Cl (centres unmarked) ?
RESULT: 8%

QUERY: How about CN(CCOCC(=O)NC1CCC(C(CCc2ccccc2)N2CCOCC2)CC1)S(=O)(=O)c1ccc(Cl)cc1Cl (centres unmarked) ?
RESULT: 4%

QUERY: How about COc1cc(C)c(S(=O)(=O)N2CCCC(OCC(=O)NCC3CCC(C(c4ccccc4)N4CCOCC4)CC3)C2)c(C)c1 (centres unmarked) ?
RESULT: 11%

QUERY: How about COc1cc(C)c(S(=O)(=O)N2CCCC2COCC(=O)NC2CCC(C(c3ccccc3)N3CCCC3)CC2)c(C)c1 (centres unmarked) ?
RESULT: 68%

Others:
QUERY: Form entry - test system: human μ opiate receptor (Homo sapiens); read-out: inhibition at 1 µM; compound: COc1cc(C)c(S(=O)(=O)N2CCC(OCC(=O)NCC3CCC(C(c4ccccc4)N4CCOCC4)CC3)C2)c(C)c1 (centres unmarked)
RESULT: 8%

QUERY: How about O=C(COC1CCN(S(=O)(=O)c2c(Cl)cc(Cl)cc2Cl)C1)NC1CCC(C(CCc2ccccc2)N2CCCCC2)CC1 (centres unmarked) ?
RESULT: 32%

QUERY: How about O=C(COCC1CCCCN1S(=O)(=O)c1c(Cl)cc(Cl)cc1Cl)NCC1CCC(C(c2ccccc2)N2CCOCC2)CC1 (centres unmarked) ?
RESULT: 40%

QUERY: How about O=C(COCC1CCCN1S(=O)(=O)c1c(Cl)cc(Cl)cc1Cl)NC1CCC(C(CCc2ccccc2)N2CCOCC2)CC1 (centres unmarked) ?
RESULT: 21%
